# System: SCC VII tumor cells
# method: Cytotoxicity: IC50, growth inhibition after 3 days of continuous exposure
# Type: cell-based
# condition info: 3 days continuous exposure, read-out: IC50 (cell toxicity)
readout type: pIC50
Give only the number. pIC50 is defined as minus log10 of concentration in molar units.

Let me know recorded pIC50 for N[C@@H](Cc1ccc(B(O)O)cc1)C(=O)O [BPA, L-boronophenylalanine, reference compound] , thanks.
1.59
